Here the recorded pest or weed control at 500 g/ha is given for each entry.
# Test system: Digitaria sanguinalis (DIGSA)
# assay_protocol: Post-emergence efficacy, glasshouse spray test
# Format: in vivo
# details: Digitaria sanguinalis, post-emergence, 312 h; Application Rate 500 g/Ha; evaluated after 13 days; read-out: Control of weed species after post-emergence application, DIGSA (100=total damage to plant; 0=no damage to plant)
# Protocol: Seeds of a variety of test species were sown in standard soil in pots. […] After 13 days the test was evaluated (100=total damage to plant; 0=no damage to plant). […]

Please review the entries below; each comes with its answer.
>  <compound>
O=S(=O)([O-])CC[n+]1ccc(-c2cnsc2)cn1

>  <result>
50%

$$$$
>  <compound>
O=S(=O)([O-])OCC[n+]1ccc(-c2ncno2)cn1

>  <result>
50%

$$$$
>  <compound>
Cn1ccnc1-c1cc[n+](CCC(=O)O)nc1 [Compound A31, 2,2,2-trifluoroacetate]

>  <result>
50%

$$$$
>  <compound>
CC(C[n+]1ccc(-c2ncco2)cn1)C(=O)O (centres unmarked)

>  <result>
70%

$$$$

With those in mind, consider the next compound.
*Q* Find pest or weed control at 500 g/ha (Digitaria sanguinalis (DIGSA)) for the entry O=C(O)CC[n+]1ccc(-c2nccs2)cn1
*A* 100%
